biological target: Histone-lysine N-methyltransferase EHMT2 (Homo sapiens); assay: qHTS Assay for Inhibitors of Histone Lysine Methyltransferase G9a; details: G9a H3K9 monomethylation, AlphaScreen, 2 h; series mostly up to 59 µM; note: nearly all actives have a fitted effect of over 75% in size
About 31,000 (8.9%) of roughly 350,000 compounds were called active. Roughly 15% stayed inconclusive and do not appear here. Calls come from the whole dose curve; as a rule, active = well fitted inhibition curve with a large enough effect; inconclusive = small, poorly fitted or top-dose-only effect; inactive = no such curve, though single readings can be large or run the other way. This excerpt belongs to a sample that is enriched for actives.
Outcomes you can answer with include only these: active, inactive

Field: example entries. Status: answers known.
compound	class assignment
O=C(NCc1ccco1)c1nn2cccnc2c1Cl	inactive
Cc1csc(NC(=O)CSc2nc(=O)n(CCCN(C)C)c3c2CCC3)n1	inactive
COc1cc2c(cc1OC)C(C(=O)Nc1cc(C)c(OC)c(C)c1)CC(=O)N2 (stereo not given)	inactive
CCC(=O)N1CCc2cc(S(=O)(=O)NC(Cc3ccccc3)C(=O)NCc3ccccc3)ccc21 (stereo not given)	inactive
O=C(CNC(=O)c1cccs1)N/N=C/c1cccc(Br)c1	inactive

Called result for Cc1ccc(S(=O)(=O)N(Cc2nc(-c3ccc(Cl)cc3)no2)C2CCCCC2)cc1
inactive

Can you look up the reported call for CC(=O)OCCN(CCCn1c(-c2ccncc2)nc2ccccc21)c1nc(-c2ccc(C)cc2)cs1 for me?
active

====

Target: Histone-lysine N-methyltransferase EHMT2 (Homo sapiens)
Assay: qHTS Assay for Inhibitors of Histone Lysine Methyltransferase G9a; note: nearly all actives have a fitted effect of over 75% in size; note: potency is the fitted concentration of half-maximal effect
Conditions: G9a H3K9 monomethylation, AlphaScreen, 2 h; series mostly up to 59 µM
Protocol: Methylated lysines, on the N-terminal tails of histone proteins serve as epigenetic markers to recruit factors that can then modify local chromatin structure to lead to functional consequences. […] Methylation of biotinylated-histone peptide is measured through specific antibody-based detection, in conjunction with streptavidin-coated donor and anti-IgG antibody-coated acceptor beads. […]
About 31,000 (8.9%) of roughly 350,000 compounds were called active. Roughly 15% stayed inconclusive and do not appear here. This excerpt belongs to a sample that is enriched for actives.
value kind: Potency

Before answering, review these 5 worked examples.
compound	Potency
Cc1ccccc1CSc1nc2c([nH]c3ccccc32)c(=O)n1C	inactive
Cc1ccc(C)c(Cn2c(C(=O)O)c(CNCc3cccs3)c3ccccc32)c1	inactive
CC(=O)c1sc(NC(=O)C2=NN(c3ccccc3)C(=O)CC2)nc1C	25.1 µM (active)
CCN(CC)C(=O)c1sc(NC(=O)c2ccco2)c(C#N)c1C	inactive
CCOC(=O)c1c(NC(C)=O)sc2c(O)c(Br)ccc12	1.58 µM (active)

For record C/C(=N\OC(=O)c1ccccc1)c1c(C)nc2cc(C)ccn12 the listed Potency is 50.1 µM (active)

Noted for C=C1c2cc(CC)ccc2NC(=O)N1c1ccc(C)cc1 : its Potency reads 11.2 µM (active)

# Potency (compound: CCC(CC)c1nnc(NC(=O)c2nn(C)c(=O)c3ccccc23)s1 ) is inactive

So, CCC1S/C(=N/N=C/c2ccco2)NC1=O (stereo not given) ? Its Potency was inactive

Potency reading for COc1cccc(CNC(=O)CN2C(=O)CCc3cc(S(=O)(=O)N4CCOCC4)ccc32)c1 : inactive

What the record says about CCN(CC)c1ccc(S(=O)(=O)N2CCCCC2)cc1NC(=O)C1=COCCO1 : Potency is inactive

Cc1ccc(NC(=O)Cn2nnc3sc4c(c3c2=O)CCC(C)C4)cc1 (stereo not given) has a reported Potency of inactive

Lab note: measured Potency of Cc1cccc(Cc2c(C)nc3nc(SCc4ccccc4Cl)nn3c2C)c1 was inactive

Looking up Cc1ccccc1-n1c(=O)c2ccccc2n(Cc2ccc(F)cc2)c1=O , I see its Potency listed as inactive

Just so you know, measured Potency for CCn1cc(NC(=O)Nc2ccc(OC)c(OC)c2)c(C(N)=O)n1 came out at 25.1 µM (active)

Reported Potency for CCn1c(SCC(=O)Nc2sc(C)c(C)c2C#N)nnc1C1CC1 was inactive

Potency measured on CC(=O)c1sc(N/N=C\c2ccc(C)cc2)nc1C = inactive

# Potency of COCCCNC(=O)c1ccc(NC(=O)c2nsc3ccccc23)cc1 = inactive

Sample C/C(=N\Nc1cccc(C(=O)O)c1)c1ccc2c(c1)Nc1ccccc1S2 ; Potency observed: 3.16 µM (active)

Reported Potency ( CC1CCC2(CC1)N=C(c1ccccc1)C(=O)N2CC(=O)Nc1ccc(F)c(Cl)c1 (stereo not given) ) = inactive

// Potency value for COc1cc(OC)c(-n2c(C)cc(C=O)c2C)cc1Cl : inactive

The compound CC(=O)c1ccc(N2CCN(S(=O)(=O)c3ccc4c(c3)CC(=O)N4C)CC2)cc1 showed Potency equal to inactive

Looking up Cc1ccc(-c2nc(C)sc2CC(=O)O)cc1 , I found its Potency recorded as inactive

Please fill in: Potency reported for COc1ccc(/C(C)=N/NC(=O)c2ccc3nc[nH]c3c2)cc1 = inactive

Briefly, Potency measured for CCOC(=O)c1ccc2c(c1)N(Cc1cccc(OC)c1)C(=O)c1ccccc1S2(=O)=O : inactive
